Cited source for all entries: patent US20200277373A1

Biological target: T1, Human TREM2 protein, on cells (human, UniProt Q9NZC2 19-230)
T1 construct: Wild type human TREM2 expressed with DAP12 on HEK293 cells (clone H6), or endogenous on primary human monocyte-derived macrophages; also called hTREM2-HEK; HEK293-H6
T1 sequence: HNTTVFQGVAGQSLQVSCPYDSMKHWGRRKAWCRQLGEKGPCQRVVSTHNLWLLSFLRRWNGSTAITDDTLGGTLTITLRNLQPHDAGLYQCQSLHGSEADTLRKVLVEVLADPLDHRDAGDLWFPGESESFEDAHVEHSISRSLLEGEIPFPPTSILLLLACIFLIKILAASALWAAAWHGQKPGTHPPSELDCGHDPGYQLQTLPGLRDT
Experiment: flow cytometry, HEK293 cells overexpressing human TREM2; further: test concentration or dose not given here
Parameter FOB (fold over binding): see the listing below.
Note: unit fold is implicit; provide only the numeric part.

Worked examples, 3 binders total:
[[record]]
binder = "42E8.H1 (antibody, V domains shown, Mouse hybridoma antibody, Ig2a, k; also called RS8.42E8.H1) VH: DVQLQESGPGLVKPSQSLSLTCTVTGYSITSDYAWNWIRQFPGNKLEWMGYINYSGRTIYNPSLKSRISITRDTSKNHFFLQLISVTTEDTATYYCARWNGNYGFAYWGQGTLVTVSA VL: DVVMTQNPLSLPVSLGDQASISCRSSQSLVHINGNTYLHWYLQKPGQSPKLLIYKVSNRFSGVPDRFSGSGSGTDFTLKISRVEAEDLGVYFCSQTTHALFTFGSGTKLEIK"
numeric_readout = 10.6

[[record]]
binder = "40H3.A4 (antibody, V domains shown, Mouse hybridoma antibody, isotype N.D; also called RS8.40H3.A4) VH: EVQLQQSGAEVVKPGASVKLSCTASGFNIKDTYMHWVKQRPEQGLEWIGRIDPANGNTKYDPKFQGKATITADTSSNTAYLQLSSLTSEDTAVYYCATLFAYWGQGTLVTVSA VL: DIVMTQAAFSNPVTLGTSASISCRSSKSLLHSNGITYLYWYLQKPGQSPQLLIYQMSNLASGVPDRFSSSGSGIDFTLRINRVEAEDVGVYYCAQNLELPTFGSGTKLEIK"
numeric_readout = 1

[[record]]
binder = "49H11.B1 (antibody, IgG3, V domains shown, Mouse hybridoma antibody, IgG3, k; also called RS8.49H11.B1) VH: DVQLQESGPGLVKPSQSLSLTCTVTGYSITSDYAWNWIRQFPGNRLEWMGYISFSGSTSYNPSLKSRISITRDTSKNQFFLQLNSVTTEDTATYYCARWNGNYGFAYWGQGTLVTVSA VL: DVVMTQTPLSLPVSLGDQASISCRSSQSLVHINGNTYLHWYLQKPGQSPKLLIYKVSNRFSGVPDRFSGSGSGTDFTLKISRVEAEDLGVYFCSQSTHVTFTFGSGTKLEIK"
numeric_readout = 7


Moving on to another binder below.
Query: Give the measured FOB (fold over binding) of 57D7.A1 (antibody, V domains shown, Mouse hybridoma antibody, Ig2a, k; also called RS8.57D7.A1) VH: QVQLKESGPGLVAPSQSLSITCTVSGFSLSRYSVYWVRQPPGKGLEWLGMIWGGGNTDYNSALKSRLSISKDNSKSQVFLKMNSLQTDDSAMYYCVQYGGMDYWGQGTSVTVSS VL: DVLMTQTPLSLPVSLGDQASISCRSSQSIVHSNGNTYLEWYLQKPGQSPKLLIYKVSNRFSGVPDRFSGSGSGTDFTLKISRVEAEDLGVYYCFQGSHVPYTFGGGTKLEIK .
Response: 11.5
